Target: human CB2 receptors (Homo sapiens (Human), UniProt P34972)
Sequence (P34972 whole entry): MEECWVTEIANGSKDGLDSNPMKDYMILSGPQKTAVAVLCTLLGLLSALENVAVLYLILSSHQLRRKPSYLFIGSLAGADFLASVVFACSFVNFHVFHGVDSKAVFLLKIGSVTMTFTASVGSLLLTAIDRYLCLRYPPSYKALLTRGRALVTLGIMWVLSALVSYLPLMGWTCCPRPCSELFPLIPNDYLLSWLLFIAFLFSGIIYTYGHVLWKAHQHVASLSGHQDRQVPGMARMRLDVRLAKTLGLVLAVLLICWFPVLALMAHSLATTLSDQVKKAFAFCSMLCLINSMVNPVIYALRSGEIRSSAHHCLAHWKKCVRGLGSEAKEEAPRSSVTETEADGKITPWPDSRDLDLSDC
Test: functional cAMP assay, CB2
Assay type: cell-based
Conditions: functional cAMP assay, CHO cells expressing human CB2; read-out: human CB2 EC50
What pEC50 was measured for each of the following?
Schema: pEC50 number; meaning minus log10 of the concentration expressed in molar units.

Reported pEC50, compound CC(C)C[C@H](NC(=O)c1cnc(C2CC2)c(OCC2CC2)n1)C(N)=O [Example 29] : ____
8.39

Reported pEC50, compound Cc1nc([C@H](CC2CC2)NC(=O)c2cnc(C3CC3)c(OCC3CC3)n2)no1 [Example 65] : ____
7.68

Reported pEC50, compound CC(C)(NC(=O)c1cnc(N2CC(F)(F)C2)c(OCC2CC2)n1)c1noc(N)n1 [Example 58] : ____
6.75

Reported pEC50, compound CC(C)C(NC(=O)c1cnc(N2CC(F)(F)C2)c(OCC2CC2)n1)C(N)=O (centres unmarked) [Example 88] : ____
7.10

Reported pEC50, compound COC(=O)[C@H](CC1CC1)NC(=O)c1cnc(N2CC(F)(F)C2)c(OCC2CC2)n1 [Example 36] : ____
8.02

Reported pEC50, compound CNC(=O)[C@@H](NC(=O)c1cnc(C2CC2)c(OCC2CC2)n1)C(C)(C)C [Example 14] : ____
8.17

Reported pEC50, compound C[C@H](NC(=O)c1cnc(C2CC2)c(OCC2CC2)n1)c1ccccn1 [Example 46] : ____
6.54

Reported pEC50, compound NC(=O)[C@@H](NC(=O)c1cnc(N2CC(F)(F)C2)c(OCC2CC2)n1)c1ccccc1 [Example 22] : ____
7.03

Reported pEC50, compound CC(C)(NC(=O)c1cnc(C2CC2)c(OCC2CC2)n1)c1noc(N)n1 [Example 57] : ____
6.65

Reported pEC50, compound NC(=O)[C@@H]1CCCC[C@@H]1NC(=O)c1cnc(C2CC2)c(OCC2CC2)n1 [Example 82] : ____
6.59

Reported pEC50, compound CC(C)(NC(=O)c1cnc(C2CC2)c(-c2cccc(Cl)c2)n1)c1nccs1 [Example 6] : ____
7.32

Reported pEC50, compound NC(=O)[C@H](Cc1ccccc1)NC(=O)c1cnc(C2CC2)c(OCC2CC2)n1 [Example 37] : ____
6.96

Reported pEC50, compound O=C(Nc1ccc(Cl)s1)c1cnc(N2CC(F)(F)C2)c(OCC2CC2)n1 [Example 93] : ____
7.13

Reported pEC50, compound Cc1nc(C(C)(NC(=O)c2cnc(N3CC(F)(F)C3)c(OCC3CC3)n2)C2CC2)no1 (centres unmarked) [Example 61] : ____
7.75

Reported pEC50, compound CCC(CC)(NC(=O)c1cnc(C2CC2)c(OCC2CC2)n1)C(=O)OC [Example 30] : ____
8.85

Reported pEC50, compound C[C@@](NC(=O)c1cnc(N2CC(F)(F)C2)c(OCC2CC2)n1)(C(N)=O)c1ccccc1 [Example 59] : ____
7.31

Reported pEC50, compound Cc1nc([C@](C)(NC(=O)c2cnc(N3CC(F)(F)C3)c(OCC3CC3)n2)C2CC2)no1 [Example 87] : ____
7.88

* * *

Target: UniProt P34972
Experiment: functional cAMP assay, CB2
Format: cell-based
Settings: functional cAMP assay, CHO cells expressing human CB2; read-out: human CB2 EC50
property.measured: EC50 (nM)
Give a bare numeral; the unit nM is implied.

EC50 of CNC(=O)[C@H](CC1CC1)NC(=O)c1cnc(N2CC(F)(F)C2)c(OCC2CC2)n1 on UniProt P34972?
124

EC50 of COCCC(C)(C)NC(=O)c1cnc(N2CC(F)(F)C2)c(OCC2CC2)n1 on UniProt P34972?
10.3

EC50 of COC(=O)[C@H](CC(C)C)NC(=O)c1cnc(N2CC(F)(F)C2)c(OCC2CC2)n1 on UniProt P34972?
0.4

EC50 of CC(C)C[C@H](NC(=O)c1cnc(C2CC2)c(OCC2CC2)n1)C(=O)N(C)C on UniProt P34972?
2.7

* * *

Target: UniProt P21554
Sequence (P21554 whole entry): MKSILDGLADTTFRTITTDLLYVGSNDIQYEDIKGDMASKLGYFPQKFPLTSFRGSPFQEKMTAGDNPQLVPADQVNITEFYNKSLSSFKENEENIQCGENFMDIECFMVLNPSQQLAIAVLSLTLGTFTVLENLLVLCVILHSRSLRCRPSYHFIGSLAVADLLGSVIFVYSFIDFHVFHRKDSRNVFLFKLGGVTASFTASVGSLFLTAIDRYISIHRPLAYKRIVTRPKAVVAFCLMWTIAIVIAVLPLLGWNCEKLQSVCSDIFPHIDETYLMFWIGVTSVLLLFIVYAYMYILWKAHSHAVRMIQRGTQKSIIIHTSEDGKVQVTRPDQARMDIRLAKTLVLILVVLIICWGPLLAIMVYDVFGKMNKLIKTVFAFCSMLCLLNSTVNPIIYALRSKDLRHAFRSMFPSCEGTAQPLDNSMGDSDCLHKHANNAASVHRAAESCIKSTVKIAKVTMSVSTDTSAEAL
Test: functional cAMP assay, CB1
Type: cell-based
Details: functional cAMP assay, CHO cells expressing human CB1; read-out: human CB1 EC50
Experimental: CHO cells expressing human CB1 or CB2 receptors are seeded 17-24 hours prior to the experiment 50.000 cells per well in a black 96 well plate with flat clear bottom (Corning Costar #3904) in DMEM (Invitrogen No. 31331), 1×HT supplement, with 10% fetal calf serum and incubated at 5% CO2 and 37° C. in a humidified incubator. […] The time-resolved energy transfer is measured by a TRF reader (Evotec Technologies GmbH), equipped with a ND:YAG laser as excitation source. […]
pEC50: −log10 of the molar value.
What pEC50 was measured for each of the following?

Reported pEC50, compound COC(=O)[C@@H](NC(=O)c1cnc(C2CC2)c(OCC2CC2)n1)C(C)(C)C : ____
6.80

Reported pEC50, compound CCC(CC)(NC(=O)c1cnc(N2CC(F)(F)C2)c(OCC2CC2)n1)C(=O)NC : ____
< 5.00

Reported pEC50, compound Cc1nc([C@H](CC2CC2)NC(=O)c2cnc(N3CC(F)(F)C3)c(OCC3CC3)n2)no1 : ____
< 5.00

Reported pEC50, compound NC(=O)[C@H](Cc1ccccc1)NC(=O)c1cnc(C2CC2)c(OCC2CC2)n1 : ____
5.78

Reported pEC50, compound O=C(N[C@H](c1ccccn1)C(F)(F)F)c1cnc(N2CC(F)(F)C2)c(OCC2CC2)n1 : ____
< 5.00

Reported pEC50, compound Cc1nc(C(C)(C)NC(=O)c2cnc(C3CC3)c(OCC3CC3)n2)no1 : ____
< 5.00

Reported pEC50, compound NC(=O)[C@H](CC1CC1)NC(=O)c1cnc(N2CC(F)(F)C2)c(OCC2CC2)n1 : ____
< 5.00

Reported pEC50, compound CC(C)C(NC(=O)c1cnc(N2CC(F)(F)C2)c(OCC2CC2)n1)C(N)=O (centres unmarked) : ____
< 5.00

* * *

Target: human CB2 receptors (Homo sapiens (Human), UniProt P34972)
Assay: functional cAMP assay, CB2
Assay type: cell-based
Conditions: functional cAMP assay, CHO cells expressing human CB2; read-out: human CB2 EC50
property.measured: pEC50
Schema: pEC50 number; meaning minus log10 of the concentration expressed in molar units.

Reported pEC50, compound CC(CC(C)(C)NC(=O)c1cnc(C2CC2)c(OCC2CC2)n1)c1ccncc1 (centres unmarked) : ____
7.03

Reported pEC50, compound CCC(CC)(NC(=O)c1cnc(C2CC2)c(OCC2CC2)n1)C(=O)NC : ____
7.82

Reported pEC50, compound CC(C)C[C@H](NC(=O)c1cnc(N2CC(F)(F)C2)c(OCC2CC2)n1)C(=O)N(C)C : ____
7.87

Reported pEC50, compound CC(C)C(NC(=O)c1cnc(C2CC2)c(OCC2CC2)n1)C(=O)N(C)C (centres unmarked) : ____
8.07

Reported pEC50, compound CC(C)(CCc1ccccc1)NC(=O)c1cnc(N2CC(F)(F)C2)c(OCC2CC2)n1 : ____
8.60

Reported pEC50, compound O=C(NC(CO)CC1CCC1)c1cnc(N2CC(F)(F)C2)c(OCC2CC2)n1 (centres unmarked) : ____
8.14

Reported pEC50, compound O=C(N[C@@H](c1ccccn1)C(F)(F)F)c1cnc(C2CC2)c(OCC2CC2)n1 : ____
6.97

Reported pEC50, compound CC(C)[C@@](C)(CO)NC(=O)c1cnc(C2CC2)c(OCC2CC2)n1 : ____
7.43

* * *

Biological target: human CB2 receptors (Homo sapiens (Human))
Assay: functional cAMP assay, CB2
Assay type: cell-based
property.measured: log10 EC50 (log10 of the value in nM)
Note: values are log10 of EC50 expressed in nM.

Reported log10 EC50, compound Cc1nc([C@H](NC(=O)c2cnc(N3CC(F)(F)C3)c(OCC3CC3)n2)C2CC2)no1 (stereo in doubt) : ____
1.61

Reported log10 EC50, compound Cc1nc([C@@H](NC(=O)c2cnc(N3CC(F)(F)C3)c(OCC3CC3)n2)C2CC2)no1 (stereo in doubt) : ____
1.45

Reported log10 EC50, compound Cc1nc([C@@H](NC(=O)c2cnc(C3CC3)c(OCC3CC3)n2)C2CC2)no1 (stereo in doubt) : ____
1.49

Reported log10 EC50, compound NC(=O)[C@H]1CCCC[C@H]1NC(=O)c1cnc(N2CC(F)(F)C2)c(OCC2CC2)n1 (single isomer, unassigned) : ____
1.49

Reported log10 EC50, compound Cc1nc([C@H](NC(=O)c2cnc(C3CC3)c(OCC3CC3)n2)C2CC2)no1 (stereo in doubt) : ____
2.71
